Test system mouse MMP-9 (Mus musculus, UniProt P41245), pIC50 listed for each of the molecules.
pIC50: −log10 of the molar value.
Measured Attribute: pIC50

1) Cc1ccc2nnn(C[C@H]3CC[C@@H](C(=O)c4ccc(OCc5cccc(C(F)(F)F)c5)cc4)[C@@H]3C(=O)O)c(=O)c2c1 (single isomer, unassigned) :: 6.40
2) O=C(O)[C@H]1[C@H](Cn2nnc3ccccc3c2=O)CC[C@@H]1C(=O)c1ccc(OCCC2CCCCC2)cc1 (racemic) :: 6.03
3) O=C(O)[C@H]1[C@H](Cn2nnc3ccc(C(F)(F)F)cc3c2=O)CC[C@@H]1C(=O)c1ccc(OCC2CCCCC2)cc1 (racemic) :: 6.19
4) Cc1ccc2nnn(C[C@H]3CC[C@@H](C(=O)c4ccc(OCc5cccc(OC(F)(F)F)c5)cc4)[C@@H]3C(=O)O)c(=O)c2c1 (single isomer, unassigned) :: 5.96
5) O=C(O)[C@H]1[C@H](Cn2nnc3ccccc3c2=O)CC[C@@H]1C(=O)c1ccc(OCc2cccc(Cl)c2)cc1 (racemic) :: 5.96

---

Target Of Assay: mouse MMP-8 (Mus musculus)
Sequence (O70138 101-465): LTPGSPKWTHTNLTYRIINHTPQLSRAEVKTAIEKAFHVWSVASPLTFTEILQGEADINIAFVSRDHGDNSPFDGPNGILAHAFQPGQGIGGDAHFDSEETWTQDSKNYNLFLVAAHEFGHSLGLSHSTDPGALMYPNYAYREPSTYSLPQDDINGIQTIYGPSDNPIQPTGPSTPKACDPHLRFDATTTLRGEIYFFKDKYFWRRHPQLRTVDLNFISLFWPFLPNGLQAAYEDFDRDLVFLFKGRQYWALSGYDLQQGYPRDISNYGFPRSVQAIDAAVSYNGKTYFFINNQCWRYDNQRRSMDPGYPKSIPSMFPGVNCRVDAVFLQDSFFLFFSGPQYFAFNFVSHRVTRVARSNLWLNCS
pIC50: −log10 of the molar value.
Please note: Fulfilled applies when pIC50 is 7 or greater, and Not fulfilled applies otherwise.

1) Cc1ccc2nnn(C[C@@H]3CC[C@H](C(=O)c4ccc(OCc5cccc(C(F)(F)F)c5)cc4)[C@H]3C(=O)O)c(=O)c2c1 (racemic) :: Not fulfilled
2) Cc1ccc2nnn(C[C@H]3CC[C@@H](C(=O)c4ccc(OCc5cccc(OC(F)(F)F)c5)cc4)[C@@H]3C(=O)O)c(=O)c2c1 (single isomer, unassigned) :: Not fulfilled
3) O=C(O)[C@@H]1[C@@H](Cn2nnc3ccc(C(F)(F)F)cc3c2=O)CC[C@H]1C(=O)c1ccc(SCc2ccccc2)cc1 (single isomer, unassigned) :: Not fulfilled
4) Cc1ccc2nnn(C[C@H]3CC[C@@H](C(=O)c4ccc(OCc5ccccc5)cc4)[C@@H]3C(=O)O)c(=O)c2c1 (single isomer, unassigned) :: Fulfilled
5) O=C(O)[C@H]1[C@H](Cn2nnc3ccccc3c2=O)CC[C@@H]1C(=O)c1ccc(OCc2cccc(Cl)c2)cc1 (racemic) :: Not fulfilled
6) Cc1cccc(COc2ccc(C(=O)[C@@H]3CC[C@H](Cn4nnc5ccc(C)cc5c4=O)[C@H]3C(=O)O)cc2)c1 (single isomer, unassigned) :: Not fulfilled

---

Test system UniProt P45452, pIC50 listed for each of the compounds.
pIC50: −log10 of the molar value.
Measured Attribute: pIC50

1) O=C(O)[C@@H]1[C@@H](Cn2nnc3ccc(C(F)(F)F)cc3c2=O)CC[C@H]1C(=O)c1ccc(OCCC2CCCCC2)cc1 (single isomer, unassigned) :: 5.80
2) O=C(O)[C@@H]1[C@@H](Cn2nnc3ccc(C(F)(F)F)cc3c2=O)CC[C@H]1C(=O)c1ccc(OCc2ccc(F)cc2)cc1 (single isomer, unassigned) :: 7.48
3) Cc1cccc(COc2ccc(C(=O)[C@H]3CC[C@@H](Cn4nnc5ccc(C(F)(F)F)cc5c4=O)[C@@H]3C(=O)O)cc2)c1 (racemic) :: 6.19

---

Test system: rat hepatocytes
Protocol Description: Hepatocyte assay for determination of metabolic stability
Assay type: in vitro ADME
Test Parameters: after incubation with rat hepatocytes
Please note: fulfilled applies when Fmax (maximum possible bioavailability after oral administration, well-stirred) is 80% or greater, and not fulfilled applies otherwise.

1) O=C(O)[C@H]1[C@H](Cn2nnc3ccc(C(F)(F)F)cc3c2=O)CC[C@@H]1C(=O)c1ccc(OCc2ccccc2)cc1 (racemic) [Example 11] :: not fulfilled
2) Cc1ccc2nnn(C[C@H]3CC[C@@H](C(=O)c4ccc(OCc5ccc(F)cc5)cc4)[C@@H]3C(=O)O)c(=O)c2c1 (racemic) [Example 95] :: fulfilled
3) Cc1ccc2nnn(C[C@H]3CC[C@@H](C(=O)c4ccc(OCc5cccc(C(F)(F)F)c5)cc4)[C@@H]3C(=O)O)c(=O)c2c1 (racemic) [Example 101] :: fulfilled
4) Cc1ccc2nnn(C[C@H]3CC[C@@H](C(=O)c4ccc(OCc5cccc(OC(F)(F)F)c5)cc4)[C@@H]3C(=O)O)c(=O)c2c1 (racemic) [Example 110] :: fulfilled
5) Cc1ccc2nnn(C[C@H]3CC[C@@H](C(=O)c4ccc(OCc5ccccc5)cc4)[C@@H]3C(=O)O)c(=O)c2c1 (racemic) [Example 92] :: not fulfilled
6) Cc1ccc2nnn(C[C@H]3CC[C@@H](C(=O)c4ccc(OCc5cccc(Cl)c5)cc4)[C@@H]3C(=O)O)c(=O)c2c1 (racemic) [Example 104] :: not fulfilled
